All values here come from patent US8552208B2.

# System: Methicillin sensitive Staphylococcus aureus 8325 ATCC 35556
# ASSAY OVERVIEW: Antibacterial activity assay (MIC, broth dilution)
# Format: cell-based
# MEASUREMENT CONTEXT: ATCC 35556 / MSSA; Methicillin sensitive Staphylococcus aureus 8325 ATCC 35556; read-out: MIC, MSSA
Form field: MIC (one value per entry).
ASSAY METRIC: MIC (µg/mL)

>>> readout_number("COc1cccc(CN2C(=O)/C(=C(/C)O)C(=O)[C@@H]2CC(C)C)c1 [Compound 13d]")
12.5
>>> readout_number("CCCCCCCCCCN1C(=O)C(C#N)=C(O)[C@@H]1CC(C)C [Compound 12b]")
25
>>> readout_number("CCC(C)[C@H]1C(=O)/C(=C(\\C)O)C(=O)N1Cc1ccccc1 (stereo partly shown) [Compound 13a]")
6.25
>>> readout_number("CCCCCCCCCCN1C(=O)/C(=C(/C)O)C(=O)[C@@H]1C(C)C [Compound 13i]")
0.8
>>> readout_number("CCN1C(=O)/C(=C(/C)O)C(=O)[C@@H]1Cc1ccccc1 [Compound 13h]")
200
>>> readout_number("C/C(O)=C1\\C(=O)[C@H](CC(C)C)N(Cc2ccc(F)cc2)C1=O [Compound 13e]")
12.5
>>> readout_number("C/C(O)=C1\\C(=O)[C@H](Cc2ccccc2)N(Cc2ccccc2)C1=O [Compound 13c]")
12.5
>>> readout_number("CCCCCCCCCCN1C(=O)/C(=C(/C)O)C(=O)[C@@H]1CC(C)C [Compound 13b]")
0.4
>>> readout_number("C/C(O)=C1\\C(=O)[C@@H](CC(C)C)N(Cc2ccc(F)cc2)C1=O [Compound 13f]")
12.5

###

# Test system: Methicillin sensitive Staphylococcus aureus 8325 ATCC 35556
# ASSAY OVERVIEW: Antibacterial activity assay (MIC, broth dilution)
# Type: cell-based
# MEASUREMENT CONTEXT: ATCC 35556 / MSSA; Methicillin sensitive Staphylococcus aureus 8325 ATCC 35556; read-out: MIC, MSSA
ASSAY METRIC: MIC (µg/mL)

>>> readout_number("CCCCCCCCCCN1C(=O)/C(=C(/C)O)C(=O)[C@H]1CC(C)C [Compound 13o]")
0.4
>>> readout_number("CCCCCCCCCCN1C(=O)/C(=C(/C)O)C(=O)[C@@H]1Cc1ccccc1 [Compound 13n]")
0.2
>>> readout_number("CCCCN1C(=O)/C(=C(/C)O)C(=O)[C@@H]1CC(C)C [Compound 13j]")
3.12
>>> readout_number("CC(C)=CCCC(C)CCN1C(=O)/C(=C(/C)O)C(=O)[C@@H]1CC(C)C (stereo partly drawn) [Compound 13m]")
0.4
>>> readout_number("C/C(O)=C1\\C(=O)[C@@H](Cc2ccccc2)N(Cc2ccccc2)C1=O [Compound 13g]")
25

###

# Tested on: clinical isolates of MSSA (methicillin sensitive S. aureus)
# Assay type: cell-based
# MEASUREMENT CONTEXT: isolate MSSA-13
ASSAY METRIC: Antibiotic MIC (µg/mL)

>>> readout_number("CCCCCCCCCCN1C(=O)/C(=C(/C)O)C(=O)[C@@H]1Cc1ccccc1 [Compound 13n]")
0.8
>>> readout_number("CCCCCCCCCCN1C(=O)/C(=C(/C)O)C(=O)[C@@H]1CC(C)C [Compound 13b]")
0.4
>>> readout_number("C/C(O)=C1\\C(=O)[C@H](CC(C)C)N(Cc2ccc(-c3ccccc3)cc2)C1=O [Compound 13k]")
0.8
>>> readout_number("CCCCN1C(=O)/C(=C(/C)O)C(=O)[C@@H]1CC(C)C [Compound 13j]")
12.5

###

# Test system: clinical isolates of MRSA (methicillin resistant S. aureus)
# Assay type: cell-based
# MEASUREMENT CONTEXT: isolate MRSA-2
Form field: Antibiotic MIC (one value per entry).
ASSAY METRIC: Antibiotic MIC (µg/mL)

>>> readout_number("C/C(O)=C1\\C(=O)[C@H](CC(C)C)N(Cc2ccc(-c3ccccc3)cc2)C1=O [Compound 13k]")
1.6
>>> readout_number("C/C(O)=C1\\C(=O)[C@H](CC(C)C)N(CC2=CCC3CC2C3(C)C)C1=O (some centres unmarked) [Compound 13l]")
3.12
>>> readout_number("CCCCCCCCCCN1C(=O)/C(=C(/C)O)C(=O)[C@@H]1Cc1ccccc1 [Compound 13n]")
1.6
>>> readout_number("CCCCCCCCCCN1C(=O)/C(=C(/C)O)C(=O)[C@@H]1CC(C)C [Compound 13b]")
0.8
>>> readout_number("CCCCN1C(=O)/C(=C(/C)O)C(=O)[C@@H]1CC(C)C [Compound 13j]")
25

###

# ASSAY OVERVIEW: Cytotoxicity assay (MTT)
# Assay type: cell-based, monkey
# MEASUREMENT CONTEXT: monkey; Vero cells, 72 hours, MTT; read-out: IC50 (Cytotoxicity): Concentration which reduces viability of Vero kidney cells by 50%
ASSAY METRIC: IC50 at 72 h (µg/mL)

>>> readout_number("C/C(O)=C1\\C(=O)[C@H](CC(C)C)N(Cc2ccc(F)cc2)C1=O [Compound 13e]")
27.8
>>> readout_number("COc1cccc(CN2C(=O)/C(=C(/C)O)C(=O)[C@@H]2CC(C)C)c1 [Compound 13d]")
40
>>> readout_number("CCC(C)[C@H]1C(O)=C(C#N)C(=O)N1Cc1ccco1 (some centres unmarked) [Compound 12p]")
6400
>>> readout_number("CCCCN1C(=O)/C(=C(/C)O)C(=O)[C@@H]1CC(C)C [Compound 13j]")
254
>>> readout_number("CCCCCCCCCCN1C(=O)C(C#N)=C(O)[C@@H]1CC(C)C [Compound 12b]")
152

###

# ASSAY OVERVIEW: Cytotoxicity assay (MTT)
# Assay type: cell-based, monkey
# MEASUREMENT CONTEXT: monkey; Vero cells, 72 hours, MTT; read-out: IC50 (Cytotoxicity): Concentration which reduces viability of Vero kidney cells by 50%
Form field: IC50 at 72 h (one value per entry).
ASSAY METRIC: IC50 at 72 h (µg/mL)

>>> readout_number("CCC(C)[C@H]1C(=O)/C(=C(\\C)O)C(=O)N1Cc1ccccc1 (stereo partly drawn) [Compound 13a]")
26.3
>>> readout_number("C/C(O)=C1\\C(=O)[C@@H](CC(C)C)N(Cc2ccc(F)cc2)C1=O [Compound 13f]")
35.3
>>> readout_number("CC(C)=CCCC(C)CCN1C(=O)/C(=C(/C)O)C(=O)[C@@H]1CC(C)C (stereo partly drawn) [Compound 13m]")
7.3

###

# Test system: Enterococcus faecalis ATCC 33186
# ASSAY OVERVIEW: Antibacterial activity assay (MIC, broth dilution)
# Format: cell-based
# MEASUREMENT CONTEXT: ATCC33186; Enterococcus faecalis ATCC 33186; read-out: MIC, EF
ASSAY METRIC: MIC

>>> result("COc1cccc(CN2C(=O)C(C#N)=C(O)[C@@H]2CC(C)C)c1 [Compound 12d]")
"> 200 µg/mL"
>>> result("CCN1C(=O)/C(=C(/C)O)C(=O)[C@@H]1Cc1ccccc1 [Compound 13h]")
"> 200 µg/mL"
>>> result("CC(C)C[C@H]1C(O)=C(C#N)C(=O)N1Cc1ccc(F)cc1 [Compound 12e]")
"> 200 µg/mL"
>>> result("CCC(C)[C@H]1C(O)=C(C#N)C(=O)N1Cc1ccccc1 (stereo partly shown) [Compound 12a]")
"> 200 µg/mL"

###

# Test system: Methicillin sensitive Staphylococcus aureus 8325 ATCC 35556
# ASSAY OVERVIEW: Antibacterial activity assay (MIC, broth dilution)
# Type: cell-based
# MEASUREMENT CONTEXT: ATCC 35556 / MSSA; Methicillin sensitive Staphylococcus aureus 8325 ATCC 35556; read-out: MIC, MSSA
Form field: MIC (one value per entry).
ASSAY METRIC: MIC

>>> result("C/C(O)=C1\\C(=O)[C@H](CC(C)C)N(Cc2ccc(-c3ccccc3)cc2)C1=O [Compound 13k]")
"< 0.1 µg/mL"
>>> result("COc1cccc(CN2C(=O)C(C#N)=C(O)[C@@H]2CC(C)C)c1 [Compound 12d]")
"> 200 µg/mL"
>>> result("CCC(C)[C@H]1C(O)=C(C#N)C(=O)N1Cc1ccccc1 (stereo partly shown) [Compound 12a]")
"> 200 µg/mL"
>>> result("N#CC1=C(O)[C@@H](Cc2ccccc2)N(Cc2ccccc2)C1=O [Compound 12g]")
"> 200 µg/mL"
